Assign protein stability index to each entry below.
B1: HNF4A (parent)
chain: RFSRQCVVDKDKRNQCRYCRLKKC

# Variants of: B1
# protocol-description: protein stability index of a GFP-peptide fusion (GPS, HEK-293T) (PSI 1-6); higher = more stable;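 further: lentivirally expressed fusions sorted by FACS into six bins by GFP to DsRed ratio, PSI derived from sequencing read proportions per bin multiplied by bin number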
# test-settings: c terminus: a fixed tail appended
I only need the number, thanks.

So what's the measured protein stability index for this one? R13F
2.56

So what's the measured protein stability index for this one? D11K
2.4

So what's the measured protein stability index for this one? K23D
1.65

So what's the measured protein stability index for this one? N14W
2.27

So what's the measured protein stability index for this one? R1H
3.54

So what's the measured protein stability index for this one? N14Y
3.62

So what's the measured protein stability index for this one? Q5S
2.96

So what's the measured protein stability index for this one? K10C
2.25

So what's the measured protein stability index for this one? N14S
2.96

So what's the measured protein stability index for this one? C19G
3.04

So what's the measured protein stability index for this one? N14A
1.5

So what's the measured protein stability index for this one? L21C
3.73

So what's the measured protein stability index for this one? N14I
2.39

So what's the measured protein stability index for this one? C16R
4.33

So what's the measured protein stability index for this one? F2M
2.89

So what's the measured protein stability index for this one? V7F
1.94

So what's the measured protein stability index for this one? R4F
1.9

So what's the measured protein stability index for this one? K12T
2.85

So what's the measured protein stability index for this one? C6I
2.33

So what's the measured protein stability index for this one? R17E
3.78

So what's the measured protein stability index for this one? V8M
2.56

So what's the measured protein stability index for this one? F2P
3.45

So what's the measured protein stability index for this one? R13C
3.06

So what's the measured protein stability index for this one? Q15P
2.21

So what's the measured protein stability index for this one? K23P
1.74

So what's the measured protein stability index for this one? R13P
1.84

So what's the measured protein stability index for this one? F2A
3.77

So what's the measured protein stability index for this one? K10G
2.55

So what's the measured protein stability index for this one? R4I
1.85

So what's the measured protein stability index for this one? Y18S
3.69

So what's the measured protein stability index for this one? R13I
2.38

So what's the measured protein stability index for this one? F2N
3.39

So what's the measured protein stability index for this one? C19F
2.39

So what's the measured protein stability index for this one? V7I
2.13

So what's the measured protein stability index for this one? F2D
3.45

So what's the measured protein stability index for this one? D9E
2.52

So what's the measured protein stability index for this one? R4T
1.62

So what's the measured protein stability index for this one? Q15T
2.68

So what's the measured protein stability index for this one? S3W
1.52

So what's the measured protein stability index for this one? N14K
2.23

So what's the measured protein stability index for this one? R4G
2.6

So what's the measured protein stability index for this one? K10P
2.8

So what's the measured protein stability index for this one? C16T
3.56

So what's the measured protein stability index for this one? R17V
2.21

So what's the measured protein stability index for this one? R20S
2.72

So what's the measured protein stability index for this one? L21H
3.41

So what's the measured protein stability index for this one? R13L
2.22

So what's the measured protein stability index for this one? S3H
2.7

So what's the measured protein stability index for this one? D9H
3.9

So what's the measured protein stability index for this one? R20E
2.84

So what's the measured protein stability index for this one? K10R
2.78

So what's the measured protein stability index for this one? D9R
3.01

So what's the measured protein stability index for this one? R4V
2.59

So what's the measured protein stability index for this one? C19P
3.13

So what's the measured protein stability index for this one? D11H
2.97

So what's the measured protein stability index for this one? K12S
2

So what's the measured protein stability index for this one? K10Q
2.95

So what's the measured protein stability index for this one? K22C
2.66

So what's the measured protein stability index for this one? C6N
2.86

So what's the measured protein stability index for this one? L21R
4.08

So what's the measured protein stability index for this one? C19N
3.71

So what's the measured protein stability index for this one? K12V
1.99

So what's the measured protein stability index for this one? S3Y
2.95

So what's the measured protein stability index for this one? C24M
3.33

So what's the measured protein stability index for this one? S3A
2.59

So what's the measured protein stability index for this one? C6Q
3.36

So what's the measured protein stability index for this one? C24A
3.01

So what's the measured protein stability index for this one? D9W
1.68

So what's the measured protein stability index for this one? Y18K
3.73

These measurements were taken from the supplement of paper PMC10567573.
